Measured inhibition by item
- target.or.system: Mast/stem cell growth factor receptor Kit (Homo sapiens)
- method: Inhibition of c-KIT (unknown origin) at 10 uM after 1 hr by mobility shift assay

| compound.structure.string | target.or.system | inhibition, % |
| --- | --- | --- |
| CCN(CC)CCn1cnnc1-c1cc(Oc2ccc(NC(=O)Nc3ccc(F)c(F)c3)cc2F)ccn1 | Mast/stem cell growth factor receptor Kit (Homo sapiens) | 27.7 |
| CN(C)CCn1cnnc1-c1cc(Oc2ccc(NC(=O)Nc3ccc(Cl)c(C(F)(F)F)c3)cc2F)ccn1 | Mast/stem cell growth factor receptor Kit (Homo sapiens) | 70.4 |
| CCN(CC)CCn1cnnc1-c1cc(Oc2ccc(NC(=O)Nc3ccc(Cl)c(C(F)(F)F)c3)cc2F)ccn1 | Mast/stem cell growth factor receptor Kit (Homo sapiens) | 79.9 |
| CN(C)CCn1cnnc1-c1cc(Oc2ccc(NC(=O)Nc3ccccc3C(F)(F)F)cc2F)ccn1 | Mast/stem cell growth factor receptor Kit (Homo sapiens) | 22.7 |

* * *

- target.or.system: Mast/stem cell growth factor receptor Kit (Homo sapiens) (UniProt P10721)
- Sequence (P10721 whole entry): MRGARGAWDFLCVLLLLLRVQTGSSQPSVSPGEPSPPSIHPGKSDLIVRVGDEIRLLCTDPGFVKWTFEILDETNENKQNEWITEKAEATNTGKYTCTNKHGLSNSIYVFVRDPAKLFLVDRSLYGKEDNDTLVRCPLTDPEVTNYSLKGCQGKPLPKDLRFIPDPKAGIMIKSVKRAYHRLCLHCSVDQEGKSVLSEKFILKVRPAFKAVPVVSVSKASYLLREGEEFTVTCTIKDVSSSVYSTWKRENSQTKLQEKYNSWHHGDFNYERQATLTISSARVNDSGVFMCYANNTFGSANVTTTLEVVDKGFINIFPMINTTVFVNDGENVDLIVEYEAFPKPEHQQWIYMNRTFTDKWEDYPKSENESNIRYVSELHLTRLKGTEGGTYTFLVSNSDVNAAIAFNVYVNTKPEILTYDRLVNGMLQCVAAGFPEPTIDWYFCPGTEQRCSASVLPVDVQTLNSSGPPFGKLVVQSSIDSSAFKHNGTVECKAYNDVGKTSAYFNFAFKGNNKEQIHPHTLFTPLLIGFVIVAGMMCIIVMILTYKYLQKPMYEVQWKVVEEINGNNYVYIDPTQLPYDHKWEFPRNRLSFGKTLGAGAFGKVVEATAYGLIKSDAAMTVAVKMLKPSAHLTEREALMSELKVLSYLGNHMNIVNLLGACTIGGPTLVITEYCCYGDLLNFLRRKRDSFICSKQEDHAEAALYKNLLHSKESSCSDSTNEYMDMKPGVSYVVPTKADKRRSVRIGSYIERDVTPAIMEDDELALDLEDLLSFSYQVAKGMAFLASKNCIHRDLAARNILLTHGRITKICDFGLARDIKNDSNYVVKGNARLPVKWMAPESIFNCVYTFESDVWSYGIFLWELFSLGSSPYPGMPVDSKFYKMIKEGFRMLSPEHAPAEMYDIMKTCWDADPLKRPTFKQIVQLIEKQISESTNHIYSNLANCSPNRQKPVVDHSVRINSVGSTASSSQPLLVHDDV
- method: Inhibition of c-KIT (unknown origin) at 10 uM after 1 hr by mobility shift assay

| compound.structure.string | inhibition [%] |
| --- | --- |
| O=C(Nc1ccc(Oc2ccnc(-c3nncn3CCCN3CCOCC3)c2)c(F)c1)Nc1ccc(Cl)c(C(F)(F)F)c1 | 56.7 |
| CN(C)CCn1cnnc1-c1cc(Oc2ccc(NC(=O)Nc3ccc(F)c(F)c3)cc2F)ccn1 | 3.9 |
| CCN(CC)CCn1cnnc1-c1cc(Oc2ccc(NC(=O)Nc3ccc(F)c(Cl)c3)cc2F)ccn1 | 40.4 |
| O=C(Nc1ccc(Oc2ccnc(-c3nncn3CCCN3CCOCC3)c2)c(F)c1)Nc1ccc(Cl)cc1Cl | 43.5 |

* * *

- target.or.system: Mast/stem cell growth factor receptor Kit (Homo sapiens) (UniProt P10721)
- method: Inhibition of c-KIT (unknown origin) at 10 uM after 1 hr by mobility shift assay

| compound.structure.string | measurement.units | inhibition |
| --- | --- | --- |
| CN(C)CCCn1cnnc1-c1cc(Oc2ccc(NC(=O)Nc3cccc(C(F)(F)F)c3)cc2F)ccn1 | % | 69.9 |
| CN(C)CCn1cnnc1-c1cc(Oc2ccc(NC(=O)Nc3cccc(C(F)(F)F)c3)cc2F)ccn1 | % | 60.5 |
| CNC(=O)c1cc(Oc2ccc(NC(=O)Nc3ccc(Cl)c(C(F)(F)F)c3)cc2)ccn1 | % | 95.6 |
| CN(C)CCn1cnnc1-c1cc(Oc2ccc(NC(=O)Nc3ccc(F)c(Cl)c3)cc2F)ccn1 | % | 74 |
| CN(C)CCCn1cnnc1-c1cc(Oc2ccc(NC(=O)Nc3ccc(F)c(F)c3)cc2F)ccn1 | % | 63.1 |
| CN(C)CCCn1cnnc1-c1cc(Oc2ccc(NC(=O)Nc3ccc(Cl)c(C(F)(F)F)c3)cc2F)ccn1 | % | 69.9 |
| CCN(CC)CCn1cnnc1-c1cc(Oc2ccc(NC(=O)Nc3cccc(C(F)(F)F)c3)cc2F)ccn1 | % | 66.5 |
| CN(C)CCCn1cnnc1-c1cc(Oc2ccc(NC(=O)Nc3ccc(F)c(Cl)c3)cc2F)ccn1 | % | 71 |

* * *

- target.or.system: Proto-oncogene tyrosine-protein kinase receptor Ret (Homo sapiens)
- method: Inhibition of RET (unknown origin) at 10 uM after 1 hr by mobility shift assay
assay.metric: inhibition (%)

| compound.structure.string | observed.measurement |
| --- | --- |
| CN(C)CCCn1cnnc1-c1cc(Oc2ccc(NC(=O)Nc3ccc(F)c(Cl)c3)cc2F)ccn1 | 45.5 |
| O=C(Nc1ccc(Oc2ccnc(-c3nncn3CCCN3CCOCC3)c2)c(F)c1)Nc1ccc(Cl)c(C(F)(F)F)c1 | 42.3 |
| CCN(CC)CCn1cnnc1-c1cc(Oc2ccc(NC(=O)Nc3ccc(Cl)c(C(F)(F)F)c3)cc2F)ccn1 | 84.4 |
| CN(C)CCCn1cnnc1-c1cc(Oc2ccc(NC(=O)Nc3ccc(Cl)c(C(F)(F)F)c3)cc2F)ccn1 | 79.3 |
| CCN(CC)CCn1cnnc1-c1cc(Oc2ccc(NC(=O)Nc3cccc(C(F)(F)F)c3)cc2F)ccn1 | 72.1 |
| CN(C)CCn1cnnc1-c1cc(Oc2ccc(NC(=O)Nc3ccc(F)c(F)c3)cc2F)ccn1 | 17.6 |
| CCN(CC)CCn1cnnc1-c1cc(Oc2ccc(NC(=O)Nc3ccc(F)c(Cl)c3)cc2F)ccn1 | 1.9 |
| CN(C)CCn1cnnc1-c1cc(Oc2ccc(NC(=O)Nc3ccc(F)c(Cl)c3)cc2F)ccn1 | 63.3 |

* * *

- Test system: MDA-MB-231
- method: Antiproliferative activity against human MDA-MB-231 cells after 72 hrs by MTT assay
- Format: functional, cell-based
- applied.conditions: MDA-MB-231, 72 h
assay.metric: IC50 (µM)

| compound.structure.string | assay.metric | relation.qualifier | observed.measurement |
| --- | --- | --- | --- |
| CCN(CC)CCn1cnnc1-c1cc(Oc2ccc(NC(=O)Nc3ccccc3C(F)(F)F)cc2F)ccn1 | IC50 | = | 11.6 |
| Cn1cnnc1-c1cc(Oc2ccc(NC(=O)Nc3cccc(C(F)(F)F)c3)cc2F)ccn1 | IC50 | = | 6.47 |
| CN(C)CCn1cnnc1-c1cc(Oc2ccc(NC(=O)Nc3ccc(F)c(F)c3)cc2F)ccn1 | IC50 | > | 50 |
| O=C(Nc1ccc(Oc2ccnc(-c3nncn3CCCN3CCOCC3)c2)c(F)c1)Nc1ccc(F)c(Cl)c1 | IC50 | > | 50 |
| CN(C)CCCn1cnnc1-c1cc(Oc2ccc(NC(=O)Nc3ccc(F)c(Cl)c3)cc2F)ccn1 | IC50 | = | 14.2 |
| Cn1cnnc1-c1cc(Oc2ccc(NC(=O)Nc3ccc(Cl)c(C(F)(F)F)c3)cc2F)ccn1 | IC50 | = | 5.32 |
| CNC(=O)c1cc(Oc2ccc(NC(=O)Nc3ccc(Cl)c(C(F)(F)F)c3)cc2)ccn1 | IC50 | = | 3.08 |
| Cn1ncnc1-c1cc(Oc2ccc(NC(=O)Nc3ccc(Cl)c(C(F)(F)F)c3)cc2F)ccn1 | IC50 | > | 50 |
| CN(C)CCCn1cnnc1-c1cc(Oc2ccc(NC(=O)Nc3ccc(Cl)cc3Cl)cc2F)ccn1 | IC50 | = | 7.49 |
| CN(C)CCn1cnnc1-c1cc(Oc2ccc(NC(=O)Nc3ccc(F)c(Cl)c3)cc2F)ccn1 | IC50 | = | 8.32 |
| CN(C)CCCn1cnnc1-c1cc(Oc2ccc(NC(=O)Nc3cccc(C(F)(F)F)c3)cc2F)ccn1 | IC50 | = | 13.3 |
| CCN(CC)CCn1cnnc1-c1cc(Oc2ccc(NC(=O)Nc3cccc(C(F)(F)F)c3)cc2F)ccn1 | IC50 | = | 0.72 |
| Cn1ncnc1-c1cc(Oc2ccc(NC(=O)Nc3cccc(C(F)(F)F)c3)cc2F)ccn1 | IC50 | = | 9.68 |
| CN(C)CCn1cnnc1-c1cc(Oc2ccc(NC(=O)Nc3ccc(Cl)c(C(F)(F)F)c3)cc2F)ccn1 | IC50 | = | 1.07 |
| CN(C)CCn1cnnc1-c1cc(Oc2ccc(NC(=O)Nc3ccccc3C(F)(F)F)cc2F)ccn1 | IC50 | > | 50 |
| CN(C)CCn1cnnc1-c1cc(Oc2ccc(NC(=O)Nc3cccc(C(F)(F)F)c3)cc2F)ccn1 | IC50 | = | 16.4 |
| CCN(CC)CCn1cnnc1-c1cc(Oc2ccc(NC(=O)Nc3ccc(Cl)cc3Cl)cc2F)ccn1 | IC50 | = | 1.79 |
| CN(C)CCCn1cnnc1-c1cc(Oc2ccc(NC(=O)Nc3ccc(F)c(F)c3)cc2F)ccn1 | IC50 | = | 25.2 |
| O=C(Nc1ccc(Oc2ccnc(-c3nncn3C3CC3)c2)c(F)c1)Nc1ccc(Cl)c(C(F)(F)F)c1 | IC50 | > | 50 |
| CN(C)CCCn1cnnc1-c1cc(Oc2ccc(NC(=O)Nc3ccccc3C(F)(F)F)cc2F)ccn1 | IC50 | = | 40.5 |
| CCN(CC)CCn1cnnc1-c1cc(Oc2ccc(NC(=O)Nc3ccc(Cl)c(C(F)(F)F)c3)cc2F)ccn1 | IC50 | = | 1.54 |
| CN(C)CCCn1cnnc1-c1cc(Oc2ccc(NC(=O)Nc3ccc(Cl)c(C(F)(F)F)c3)cc2F)ccn1 | IC50 | = | 7.88 |
| CN(C)CCn1cnnc1-c1cc(Oc2ccc(NC(=O)Nc3ccc(Cl)cc3Cl)cc2F)ccn1 | IC50 | = | 7.96 |
| O=C(Nc1ccc(Oc2ccnc(-c3nncn3CCCN3CCOCC3)c2)c(F)c1)Nc1ccc(Cl)cc1Cl | IC50 | > | 50 |
| O=C(Nc1ccc(Oc2ccnc(-c3nncn3CCCN3CCOCC3)c2)c(F)c1)Nc1ccc(Cl)c(C(F)(F)F)c1 | IC50 | = | 8.28 |
| CCN(CC)CCn1cnnc1-c1cc(Oc2ccc(NC(=O)Nc3ccc(F)c(Cl)c3)cc2F)ccn1 | IC50 | = | 34 |
| CCN(CC)CCn1cnnc1-c1cc(Oc2ccc(NC(=O)Nc3ccc(F)c(F)c3)cc2F)ccn1 | IC50 | = | 41.3 |
